Molecular target: Factor X (FX), P00742
Sequence (P00742 whole entry, looked up): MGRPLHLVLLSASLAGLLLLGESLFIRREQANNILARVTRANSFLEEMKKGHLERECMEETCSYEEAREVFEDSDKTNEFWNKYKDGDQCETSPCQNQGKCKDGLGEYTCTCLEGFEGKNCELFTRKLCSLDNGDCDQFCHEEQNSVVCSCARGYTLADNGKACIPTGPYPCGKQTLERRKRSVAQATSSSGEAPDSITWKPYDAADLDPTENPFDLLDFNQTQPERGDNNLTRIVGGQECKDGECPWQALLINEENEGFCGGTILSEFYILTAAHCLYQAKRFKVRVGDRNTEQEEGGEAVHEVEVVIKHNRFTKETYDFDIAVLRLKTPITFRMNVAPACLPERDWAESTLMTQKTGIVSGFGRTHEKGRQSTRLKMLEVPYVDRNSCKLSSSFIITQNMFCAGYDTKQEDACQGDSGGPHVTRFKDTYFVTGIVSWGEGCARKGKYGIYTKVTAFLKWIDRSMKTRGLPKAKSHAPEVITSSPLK
endpoint.name: KM (µM)

protein	endpoint.name	result.number
FIXa-K247N/N249S/R338E/T343R/E410N (protein) chain 1: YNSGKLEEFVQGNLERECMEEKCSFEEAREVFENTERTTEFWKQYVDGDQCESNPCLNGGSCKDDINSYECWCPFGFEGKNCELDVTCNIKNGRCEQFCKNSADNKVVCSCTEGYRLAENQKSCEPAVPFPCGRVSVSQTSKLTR chain 2: VVGGEDAKPGQFPWQVVLNGKVDAFCGGSIVNEKWIVTAAHCVETGVKITVVAGEHNIEETEHTEQNRSVIRIIPHHNYNAAINKYNHDIALLELDEPLVLNSYVTPICIADKEYTNIFLKFGSGYVSGWGRVFHKGRSALVLQYLRVPLVDRATCLESTKFRIYNNMFCAGFHEGGRDSCQGDSGGPHVTEVEGTSFLTGIISWGEECAMKGKYGIYTKVSRYVNWIKNKTKLT	KM	0.0275
FIXa Y155F/R318Y/R338E/R403E (protein) chain 1: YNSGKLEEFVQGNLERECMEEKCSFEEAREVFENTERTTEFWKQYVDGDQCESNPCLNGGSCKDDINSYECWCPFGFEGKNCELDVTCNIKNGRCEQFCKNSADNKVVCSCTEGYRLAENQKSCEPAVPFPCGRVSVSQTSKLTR chain 2: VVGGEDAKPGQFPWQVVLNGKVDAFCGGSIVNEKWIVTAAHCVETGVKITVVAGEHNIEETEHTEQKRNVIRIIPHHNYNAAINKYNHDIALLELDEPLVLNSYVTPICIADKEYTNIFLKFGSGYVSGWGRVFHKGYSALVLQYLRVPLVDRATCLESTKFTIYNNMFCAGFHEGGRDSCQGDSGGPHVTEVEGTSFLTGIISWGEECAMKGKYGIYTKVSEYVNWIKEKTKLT	KM	0.0671
